Test system: SK-MEL-2 melanoma
Assay: NCI-60 one-dose screen, 48 h
Conditions: 10 µM unless noted
Experimental: Growth inhibition of the SK-MEL-2 human tumor cell line is measured as a screen for anti-cancer activity. Cells are grown in 96 well plates and exposed to the test compound for 48 hours. Compounds are tested at a single concentration, which is 10^-5 M for most compounds. The reported endpoint is percent growth (GI% or GIPRCNT), where numbers from 0 - 100% represent growth inhibition, and numbers from -100% - 0 represent cell death. For example, a value of 40 represents 60% growth inhibition. […]
About 83,000 compounds went through this panel and 20% of them were active in at least one assay; those are over-represented in the sample as a whole. Active and inactive are the calls of the source. Rule for the calls: active = growth percent below 10; inactive = the rest.
// classify into active, inactive

[ask] How was CCN(CC)CCOc1ccc(-c2nc3cc(Cl)ccc3s2)cc1 classified in this test?
[reply] inactive

[ask] Dear colleague, could you share the recorded outcome for C/C=C1\SC(=S)NC1=O when you have a moment?
[reply] inactive

---

test system: A549/ATCC NSCLC; test: NCI-60 one-dose screen, 48 h (100 = growth as untreated, 0 = no growth, -100 = all killed); conditions: 10 µM unless noted
About 83,000 compounds went through this panel and 20% of them were active in at least one assay; those are over-represented in the sample as a whole. Active and inactive are the calls of the source. The calls were made as follows: active = growth percent below 10; inactive = the rest.
observation-type: growth

Recorded results for 2 molecules are shown here.
O=C(Nc1cccc(Br)c1)Oc1ccc(Cl)c2cccnc12	23.6% [100 µM] (inactive)
Nc1ccc(SSc2ccc(N)cc2)cc1	77.7% (inactive)

Next molecule, please.
growth reading for CCC(CC)COC(=O)c1ccc(O)c(O)c1 : 52% (inactive)

---

system: OVCAR-3 ovarian; test: NCI-60 one-dose screen, 48 h (100 = growth as untreated, 0 = no growth, -100 = all killed); conditions: 10 µM unless noted
About 83,000 compounds went through this panel and 20% of them were active in at least one assay; those are over-represented in the sample as a whole.
Listed next: entries and their corresponding growth.
Give the value in % but do not write % after it.

CCN(CC)CCOc1ccc(-c2nc3cc(Cl)ccc3s2)cc1	-4.49
CC1OC(OC2C(OC3CCC4(C)C(CCC5(C)C4CC=C4C6CC(C)(C)CCC6(CO)C(O)CC45C)C3(C)C)OC(C(=O)O)C(OC3OC(COC4OC(CO)C(O)C(O)C4O)C(O)C(O)C3O)C2O)C(O)C(O)C1O (stereo not given)	-50.7

OVCAR-3 ovarian growth of COC(=O)[C@@]12OC[C@]34[C@H]([C@@H](O)[C@@H]1O)[C@@]1(C)[C@H](O)C(=O)C=C(C)[C@@H]1C[C@H]3OC(=O)C(OC(C)=O)[C@@H]24 (stereo not given in full) is -48.4

Entry Cc1cc(C(C)(CC(C)C)c2ccc(O)c(C)c2)ccc1O ; assay system OVCAR-3 ovarian; growth recorded at 106

Here O=C1c2ccccc2C(=O)N1c1ccccc1 was tested on OVCAR-3 ovarian, and its growth came to 108

---

tested on: TK-10 renal; assay: NCI-60 one-dose screen, 48 h; details: 10 µM unless noted
Compounds without any hit were thinned out: in the full panel of roughly 83,000, 20% have a hit. The source made the active and inactive calls. How the source made its calls: active means growth percent below 10; inactive means the rest.
// allowed return values: 1 (active), -1 (inactive)

CCC(CC)COC(=O)c1ccc(O)c(O)c1	-1
O=C(O)c1ccc2c3c(ncnc13)-c1ccccc1C2=O	-1
S=C(N/N=C/c1ccccn1)Nc1ccccn1	-1

[ask] Could you kindly confirm the outcome this assay logged for O[C@H]1[C@H]2c3cc4c(cc3CN3CCC(=C[C@@H]1O)[C@H]23)OCO4 ?
[reply] -1

[ask] Hey, what did the test say about N#CSCc1ccc(Cl)c(CSC#N)c1 ?
[reply] -1

[ask] State the result this test recorded for N#CSCC(=O)c1ccc(Cl)cc1 .
[reply] -1

---

test system: OVCAR-5 ovarian; assay: NCI-60 one-dose screen, 48 h; details: 10 µM unless noted
The panel holds about 83,000 compounds, 20% with a hit somewhere; the sample as a whole holds those more often. Calls of active or inactive are those of the source. How the source made its calls: active means growth percent below 10; inactive means the rest.
Response enum: True for active, False for inactive

CCOC(=O)/C(=C\c1ccc(-c2ccccc2)cc1)C(C)=O	False
O=C(Nc1cccc(Br)c1)Oc1ccc(Cl)c2cccnc12	False
O=C(/C=C\c1cc(Br)ccc1O)/C=C/c1cc(Br)ccc1O	True
Nc1nc(N)c2c(ccc3c2ccn3Cc2cccc([N+](=O)[O-])c2)n1	True
O=C1C2=C(Nc3cc([N+](=O)[O-])ccc3N2)OC1c1c2ccccc2cc2ccccc12 (stereo not drawn)	False
CC(=Nc1ccc(N(C)C)cc1)c1ccccc1	False
O=C(CC1(O)C(=O)Nc2c(Cl)ccc(Cl)c21)c1ccc(Cl)cc1Cl (stereo not drawn)	False

Now let's try a different one.
[ask] Called result for N[C@H](C(=O)O)[C@@H]1CC(Cl)=NO1
[reply] False

---

system: K-562 leukemia; assay: NCI-60 one-dose screen, 48 h (100 = growth as untreated, 0 = no growth, -100 = all killed); conditions: 10 µM unless noted
The panel holds about 83,000 compounds, 20% with a hit somewhere; the sample as a whole holds those more often.
Measured growth of individual entries
Express the result in % but write the number alone.

Record O=[N+]([O-])c1ccc(N=Nc2ccc(O)cc2O)cc1 , field growth: 20.6

// growth value for CNC(=O)N/N=C/c1ccc([N+](=O)[O-])o1 : 96.5

Reported growth for N#CSCC(=O)c1ccc(Cl)cc1 was 44.4

The compound listed as CCN(CC)CC(C)(C)C(=O)/C=C/c1ccc(Cl)c(Cl)c1 shows growth equal to 1.04

Entry O=C(Oc1cccc2cccnc12)c1ccccc1 ; growth = 48.5

For record O=C1c2ccccc2C(=O)c2sc(Nc3cccc(Cl)c3)nc21 the listed growth is 6.87

Sample O=C1NC(=O)/C(=C/C=C/c2ccccc2)S1 ; growth observed: 31.1

Looking up c1ccc2c(c1)Nc1cc3ccccc3cc1N2 , I see its growth listed as 20.9

O=[N+]([O-])c1ccc2c(N=Nc3ccc4ccccc4c3O)c(O)cc(S(=O)(=O)O)c2c1 yielded growth of 96.3

---

system: SNB-75 CNS; assay: NCI-60 one-dose screen, 48 h (100 = growth as untreated, 0 = no growth, -100 = all killed); settings: 10 µM unless noted
The panel holds about 83,000 compounds, 20% with a hit somewhere; the sample as a whole holds those more often.
observation-type: growth (%)
The reply should be a number in %, with the unit left off.

NC(N)=N/N=C/c1ccc([N+](=O)[O-])o1	106
CC(C)(C)CC(C)(C)c1ccc(OCCSC(=N)N)cc1	77.7
N#Cc1ccc([N+](=O)[O-])o1	109

Turning to the following compound.
Here O=C1N[C@H]2[C@H](CS[C@H]2CCCCC(=O)N(CCP(c2ccccc2)c2ccccc2)CCP(c2ccccc2)c2ccccc2)N1 was tested on SNB-75 CNS, and its growth came to 104

---

test system: OVCAR-4 ovarian; assay: NCI-60 one-dose screen, 48 h (100 = growth as untreated, 0 = no growth, -100 = all killed); conditions: 10 µM unless noted
Compounds without any hit were thinned out: in the full panel of roughly 83,000, 20% have a hit.
Quick reference: growth of the listed items.
Quick reminder: number only, in %, skip the unit.

Take a look at these entries with their results.
CC(=Nc1ccc(N(C)C)cc1)c1ccccc1	69.9
CCCCCCCCCCCCCCNCc1ccccc1	80.3
C1=C(c2ccccc2)C(c2ccc(OCCN3CCCCC3)cc2)Oc2ccccc21 (configuration not stated)	64
CN=C(N)N/N=C(\C)c1ccc2c(c1)Cc1cc(/C(C)=N/NC(N)=NC)ccc1-2	-69.1
O=C1NC(=O)/C(=C/C=C/c2ccccc2)S1	70.1
CCOC(=O)c1c(C)[nH]c(CO)c1C	105

For the next question, use this compound.
Consider O=C1c2ccccc2C(=O)c2sc(Nc3cccc(Cl)c3)nc21 . Its measured growth is -9.21

---

tested on: SF-268 CNS; test: NCI-60 one-dose screen, 48 h (100 = growth as untreated, 0 = no growth, -100 = all killed); settings: 10 µM unless noted
This is part of a sample that, as a whole, favours compounds with a hit. Of some 83,000 tested, about 20% had one in any assay.
Could you please mark true for values of growth below 90% and false for values at or above it?

Examples from the recorded data:
CCOC(=O)c1c(C)[nH]c(CO)c1C	false
O=C1c2ccccc2C(=O)N1c1ccccc1	false
CCCCCCCCCCCCCCCCOP(=O)([O-])OCC[N+](C)(C)C	true
CC(C)(C)CC(C)(C)c1ccc(OCCSC(=N)N)cc1	true
Oc1c(Br)cc(Cl)cc1C(c1cc(Cl)cc(Br)c1O)C(Cl)(Cl)Cl	true
NC(=S)N/N=C\c1nccc2c(C(F)(F)C(F)(F)C(F)(F)F)cccc12	true
COc1cc(/C=C(/C)C[N+](=O)[O-])ccc1O	false
N#CSCc1ccc(CSC#N)c(Cl)c1	true

[ask] Lab log: compare recorded growth with 90%; is it strictly lower for N#CSCc1c(Cl)cccc1Cl ?
[reply] true

[ask] Strictly below 90%: is that where growth of CNc1ccc(N)cc1 sits?
[reply] false

[ask] is_below(growth, 90%) for COc1ccc2nc3cc(Cl)ccc3c(NCCNc3c4ccc(Cl)cc4nc4ccc(OC)cc34)c2c1 ?
[reply] true

[ask] Would you kindly verify if growth of CCC(CC)COC(=O)c1ccc(O)c(O)c1 is strictly less than 90%?
[reply] true
